Data provenance: patent US20030229027A1

assay: Solubility of THC in water; conditions: 20 °C, thermodynamic from solid, stirred 3 days
Assay Endpoint: solubility at 3 days

- Compound: "CCCCCc1cc(O)c2c(c1)OC(C)(C)[C@@H]1CCC(C)=C[C@@H]21 [THC, Δ^9-tetrahydrocannabinol]"
  Observed: "< 1 µg/mL"
